Origin of the recorded values: PubChem BioAssay AID1159580

- Test protocol: chemical genetic growth profiling, strain panel (AID 1159580);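 note: tested at 20 µM; growth read once vehicle control cultures reached saturation at 30 °C; 1 = growth at the plate median or of vehicle wells; lower values mean less growth of the strain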
- Particulars: S. cerevisiae deletion strains, growth OD, locus YPL204W, strain HRR25, active compounds read low
Hit rate of the full screen: of about 5,500 compounds, about 2,000 (36%) were called active. Inconclusive results (about 18%) are left out. This is one part of the list.
Value type: normalized growth
# respond with the number and nothing more

Example entries begin here.
COc1ccc(NC(=O)O/N=C(/N)c2ccc(Oc3c(Cl)cncc3Cl)cc2)cc1 : 0.676
O=C(NCc1ccco1)c1ccc(Oc2cc(Cl)cc(Cl)c2)o1 : 0.941

Prompt line: Look up normalized growth for this molecule: CC1=CC(=O)C(CCOCCC2=CC(=O)C(C)=CC2=O)=CC1=O
Response line: 0.899

Prompt line: Recorded normalized growth for C/C(=N/NC(N)=S)c1ccc(Oc2c(Cl)cncc2Cl)cc1 , please?
Response line: 0.972

Prompt line: Suppose we examine the molecule O=[N+]([O-])c1cc(C(F)(F)F)ccc1-n1ccc(-c2cccs2)n1 ; what normalized growth value has been reported?
Response line: 0.885

----------
- Test protocol: chemical genetic growth profiling, strain panel (AID 1159580)
- Particulars: S. cerevisiae deletion strains, growth OD, locus YDR318W, strain mcm21, active compounds read low
Out of some 5,500 compounds screened, about 2,000 (36%) were called active. Not shown: some 18% with an inconclusive outcome. This is one part of the list.
Value type: normalized growth
Enter a number only.

Look over these answered cases.
O=c1ccc2cc(O)c(O)cc2o1 : 0.996
COC(=O)C1[C@H]2C[C@H]3c4[nH]c5ccccc5c4CCN3C[C@@H]2CC[C@@H]1O (stereo partly specified) : 1.03
COc1ccc(C(=O)c2ccccc2)c(O)c1 : 0.833

Prompt line: I have this compound here, COc1cc2c(cc1OC)C(=O)C(CC1CCN(Cc3ccccc3)CC1)C2 (stereo unspecified) , and I need its recorded normalized growth.
Response line: 0.913

Prompt line: Could you share which normalized growth value was measured for O=C(/C=C/C=C/c1ccc2c(c1)OCO2)N1CCCCC1 ?
Response line: 0.895

Prompt line: Recorded normalized growth of CCc1ccc(CCOc2ccc(CC3SC(=O)NC3=O)cc2)nc1 (stereo unspecified) , please.
Response line: 0.994

Prompt line: Entry COC(=O)COc1cc(Cl)c(Cl)cc1Cl has what normalized growth?
Response line: 0.955

Prompt line: Requested field: normalized growth. Item: Cc1ccc(O)cc1
Response line: 1.01

----------
- Test protocol: chemical genetic growth profiling, strain panel (AID 1159580)
- Particulars: S. cerevisiae deletion strains, growth OD, locus YOR316C, strain cot1, active compounds read low
Among all 5,500 compounds or so, about 2,000 (36%) were called active. Another 18% or so got no clear call; they are omitted. The list shows a part of the results.
normalized growth values for the compounds below.
Reply with the value as a number alone.

The following compounds have reported results that may help.
CCc1nc(N)nc(N)c1-c1ccc(Cl)cc1 : 1
Nc1nc2[nH]c(=O)c(=O)[nH]c2c(=O)[nH]1 : 1.01
CC1(C)C2CC[C@]3(C)C(C(=O)C=C4[C@@H]5C[C@@](C)(C(=O)O)CC[C@]5(C)CC[C@]43C)[C@@]2(C)CC[C@@H]1OC(=O)CCC(=O)O (stereo not given in full) : 0.992
S=C=NCc1ccccc1 : 0.0582

Turning now to a further compound:
Prompt line: Report normalized growth for CN=C(NC#N)NCCSCc1nc[nH]c1C please.
Response line: 0.991

----------
- Test protocol: chemical genetic growth profiling, strain panel (AID 1159580)
- Particulars: S. cerevisiae deletion strains, growth OD, locus YOR231W, strain MKK1
The whole screen tested about 5,500 compounds, of which about 2,000 (36%) were called active. Not shown: some 18% with an inconclusive outcome. Cut-off read from the data, not from the text of the source: active = normalized growth mostly below about 0.91 (no sharp cut-off); inconclusive = no clear call, values can overlap the other calls; inactive = mostly above about 0.92. The list shows a part of the results.
Response enum: Y = active, N = inactive

Observe how each entry below is paired with its result.
COc1ccc(C(=O)c2ccccc2)c(O)c1 : N
O=C(O)c1ccccc1OP(=O)(O)O : N
Cc1ccc2c(c1)CC[C@H]1CC(=O)CC[C@]21C : N
C[CH2][Hg][S]c1ccccc1C(=O)O : Y
COc1ccc(C(C)=O)c(O)c1 : N
CCOc1ccc(NC(=O)CC(C)O)cc1 (stereo not drawn) : N
COc1ccc(C(=O)c2ccccc2O)c(O)c1 : N
CCCCCCCCCCCCC[N+](C)(C)Cc1ccccc1 : Y
CCC(C(N)=O)c1ccccc1 (stereo not drawn) : N
C[N+](C)(CCOc1ccccc1)Cc1ccccc1 : N

Prompt line: Give the logged outcome of this assay for the following molecule: COC(=O)[C@@H]1C(O)CC[C@H]2CN3CCc4c([nH]c5ccccc45)[C@@H]3C[C@@H]21 (stereo partly drawn)
Response line: N

Prompt line: What was the test verdict on O=C(NCc1ccco1)c1ccc(Oc2cc(Cl)cc(Cl)c2)o1 ?
Response line: N

Prompt line: What outcome does the record of this test show for CNc1ccccc1C(=O)N1CCc2c([nH]c3ccccc23)C1=O ?
Response line: N

----------
- Test protocol: chemical genetic growth profiling, strain panel (AID 1159580);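 note: tested at 20 µM; growth read once vehicle control cultures reached saturation at 30 °C; 1 = growth at the plate median or of vehicle wells; lower values mean less growth of the strain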
- Particulars: S. cerevisiae deletion strains, growth OD, locus YIL073C, strain SPO22, active compounds read low
The campaign covered roughly 5,500 compounds. About 2,000 (36%) were called active. Inconclusive results (about 18%) are left out. This is one part of the list.
# label = MET if normalized growth < 1 else NOT MET

Oc1c(Cl)c(Cl)c(Cl)c(Cl)c1Cl : MET
O=[N+]([O-])O[C@H]1CO[C@H]2[C@@H]1OC[C@H]2O[N+](=O)[O-] : NOT MET
C=CC1=C(C(=O)O)N2C(=O)[C@@H](NC(=O)/C(=N/O)c3csc(N)n3)[C@H]2SC1 : NOT MET
COC1C(O)C(O)C(O)[C@@H](O)C1O (some centres undefined) : NOT MET
N#Cc1c(Cl)c(Cl)c(Cl)c(C#N)c1Cl : MET

Prompt line: Confirm or reject: normalized growth of Cn1cc[nH]c1=S lies strictly below 1
Response line: MET

Prompt line: Determine whether this compound shows normalized growth lower than 1 (ties excluded): CN1C2CC3C[C@H]1C(O3)C2O (some centres undefined)
Response line: NOT MET

----------
- Test protocol: chemical genetic growth profiling, strain panel (AID 1159580);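 note: tested at 20 µM; growth read once vehicle control cultures reached saturation at 30 °C; 1 = growth at the plate median or of vehicle wells; lower values mean less growth of the strain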
- Particulars: S. cerevisiae deletion strains, growth OD, locus YJL164C, strain tpk1, active compounds read low
Screen size: about 5,500 compounds; about 2,000 (36%) were called active. About 18% were inconclusive and are not listed. Some of the results follow.
Value type: normalized growth
Lab note: record just the number, no unit beside it.

O=C(O)COc1cc(Cl)c(Cl)cc1Cl : 1.01
NC[C@@H]1O[C@H](O[C@@H]2[C@@H](CO)OC(O[C@@H]3[C@@H](O)[C@H](N)C[C@H](N)[C@H]3OC3O[C@H](CN)[C@@H](O)[C@H](O)[C@H]3N)[C@@H]2O)[C@H](N)[C@@H](O)[C@@H]1O (stereo not given in full) : 1.01
NC(=O)N1c2ccccc2CC(=O)c2ccccc21 : 0.972
CCSC(=N)N : 1.01
NC(N)=Nc1nc(CSCCC(N)=NS(N)(=O)=O)cs1 : 1.01

Prompt line: Dear colleague, I am looking for the recorded normalized growth of the following compound: OC(CCN1CCCCC1)(c1ccccc1)c1ccccc1
Response line: 0.967

Prompt line: Could you tell me which normalized growth is on file for COc1ccc2cc1Oc1ccc(cc1)C[C@H]1c3cc(c(OC)cc3CCN1C)Oc1c(OC)c(OC)cc3c1[C@H](C2)N(C)CC3 ?
Response line: 0.986

Prompt line: Consider the compound shown here: COc1ccc2cc1Oc1ccc(cc1)C[C@H]1c3c(cc4c(c3Oc3cc5c(cc3OC)CCN(C)[C@@H]5C2)OCO4)CCN1C What is its recorded normalized growth?
Response line: 0.962

Prompt line: Please report the recorded normalized growth for COC1C(O)C(O)C(O)[C@@H](O)C1O (stereo not given in full) .
Response line: 0.974

Prompt line: So what does the record say about normalized growth for CCCCOc1ccc(OCCCN2CCOCC2)cc1 ?
Response line: 0.918

----------
- Test protocol: chemical genetic growth profiling, strain panel (AID 1159580);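 note: tested at 20 µM; growth read once vehicle control cultures reached saturation at 30 °C; 1 = growth at the plate median or of vehicle wells; lower values mean less growth of the strain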
- Particulars: S. cerevisiae deletion strains, growth OD, locus YDR392W, strain spt3, active compounds read low
The whole screen tested about 5,500 compounds, of which about 2,000 (36%) were called active. Roughly 18% stayed inconclusive and do not appear here. The list shows a part of the results.
Value type: normalized growth

Reference set (4 entries):
S=C=NCc1ccccc1 : 0.112 (active)
CN1CCc2cc3c(cc2C1O)OCO3 (configuration not stated) : 0.926 (inactive)
CCc1ccc(CCOc2ccc(CC3SC(=O)NC3=O)cc2)nc1 (configuration not stated) : 1 (inactive)
CC(C)=CCc1c(O)cc2oc(C)cc(=O)c2c1O : 0.87 (inactive)

Prompt line: Recorded normalized growth of O=C(/C=C/C=C/c1ccc2c(c1)OCO2)N1CCCCC1 , please.
Response line: 0.599 (active)

Prompt line: # input compound: CC(=O)OCC(CCn1cnc2cnc(N)nc21)COC(C)=O ; wanted: its normalized growth
Response line: 0.995 (inactive)

Prompt line: normalized growth lookup needed for O=C(O)C1CC([C@@H]2CCCCN2)CN2CCCCC12 (some centres not stated) , thanks.
Response line: 0.902 (inactive)
